- assaySystem: ZMYND11 480-602, Q15326
- Sequence (Q15326 480-602): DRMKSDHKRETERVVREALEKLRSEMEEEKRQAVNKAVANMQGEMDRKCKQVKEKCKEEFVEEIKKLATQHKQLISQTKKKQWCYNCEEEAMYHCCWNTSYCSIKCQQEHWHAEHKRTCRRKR

{"binder": "MPNLARMPSTTAISSN [SLAIN1, Q8ND83]", "selected by phage display": "confidence 2 (active)"}
{"binder": "MVVSMPNLQDIAMPEL [DENND3, A2RUS2]", "selected by phage display": "confidence 3 (active)"}
{"binder": "DMPELFPSKTAHVTDQ [ETAA1, Q9NY74]", "selected by phage display": "confidence 2 (active)"}
{"binder": "EEETKEMPKLQAELAD [ZBTB38, Q8NAP3]", "selected by phage display": "confidence 4 (active)"}
{"binder": "AVFPDDMPTLSALPWE [KMT2A, Q03164]", "selected by phage display": "confidence 3 (active)"}
{"binder": "EPEYPREPPRLEPQPY [UBN2, Q6ZU65]", "selected by phage display": "confidence 2 (active)"}
{"binder": "ELEMPVLKSSLALGLE [PPP1R35, Q8TAP8]", "selected by phage display": "confidence 4 (active)"}
{"binder": "EVEASMPQLWAGDSEG [ZNF484, Q5JVG2]", "selected by phage display": "confidence 2 (active)"}
{"binder": "SPPTLAPATASPPTTA [MLXIPL, Q9NP71]", "selected by phage display": "confidence 2 (active)"}
{"binder": "SLQNPPVLIAQPDHSY [SEC16A, O15027]", "selected by phage display": "confidence 2 (active)"}
